B1: Azoarcus group I ribozyme (parent)
chain: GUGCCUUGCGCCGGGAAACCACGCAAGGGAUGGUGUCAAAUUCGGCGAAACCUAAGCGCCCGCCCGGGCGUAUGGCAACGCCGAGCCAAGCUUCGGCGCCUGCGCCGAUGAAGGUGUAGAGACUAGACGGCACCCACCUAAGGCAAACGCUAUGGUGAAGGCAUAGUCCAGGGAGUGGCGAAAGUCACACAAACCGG

Variants of: B1
TEST_PROTOCOL: reverse-splicing fitness (ratio to wild type); higher = more active; in vitro selection; Mg2+ level not given
EXPERIMENTAL_READOUT: reverse-splicing fitness
Number only, no unit.

Answered cases to consult:
C82A A120C A145G C150A C169U U176G	0.00765
C82A A111U A120G A145C C150U C169U U176G	0.00596
C82G A120G C150G C169A U176A	0.0109
C82U A111U A120G A145C C169A U176C	0.00603

Attention now turns to another entry.
Data request: # input variant: C82A A111U A120G A145U C150U C169U U176G ; wanted: its reverse-splicing fitness
Data returned: 0.00524
